Cited source for all entries: PubChem BioAssay AID1531

- TARGET SYSTEM: Mitogen-activated protein kinase kinase kinase 2 (Homo sapiens) (UniProt Q9Y2U5)
- PROTOCOL TEXT: modulators of MEK5 binding to wildtype MEKK2, primary screen, biochemical, multiplex bead flow cytometry, Alexa488-MEK5 (AID 1531)
- MEASUREMENT CONDITIONS: Alexa488-MEK5 binding to MEKK2 WT, at 10 µM, actives lie on both sides
The campaign covered roughly 290,000 compounds. About 3,300 (1.1%) were called active. Rule as the data show it: active = binding response below about 67% or above about 130%; inconclusive = no clear call, values can overlap the other calls; inactive = in between. The list comes from a sample in which actives are over-represented; it also holds close analogues and randomly drawn compounds.
The reply should be one of these categories: active, inactive

Some entries whose results are on file:
{"COMPOUND": "C[C@H]1CC[C@]2(O[C@@H](CCO)C[C@@H](O)[C@@H]2O)O1", "TARGET SYSTEM": "Mitogen-activated protein kinase kinase kinase 2 (Homo sapiens) (UniProt Q9Y2U5)", "CLASS": "inactive"}
{"COMPOUND": "Cc1ccc2c(C)c(C(=O)N(C)Cc3ccncn3)oc2c1C", "TARGET SYSTEM": "Mitogen-activated protein kinase kinase kinase 2 (Homo sapiens) (UniProt Q9Y2U5)", "CLASS": "inactive"}
{"COMPOUND": "Cc1c(C(=O)N2CCN(c3ccc(F)cc3)CC2)oc2c1C(=O)CCC2", "TARGET SYSTEM": "Mitogen-activated protein kinase kinase kinase 2 (Homo sapiens) (UniProt Q9Y2U5)", "CLASS": "inactive"}
{"COMPOUND": "COC(=O)c1[nH]c2cccc(C)c2c1NC(=O)CN1CCCc2ccccc21", "TARGET SYSTEM": "Mitogen-activated protein kinase kinase kinase 2 (Homo sapiens) (UniProt Q9Y2U5)", "CLASS": "active"}
{"COMPOUND": "CC(=O)N1c2ccc(S(=O)(=O)N3CCC(C(=O)NCc4ccc(F)cc4)CC3)cc2CC1C (stereo unspecified)", "TARGET SYSTEM": "Mitogen-activated protein kinase kinase kinase 2 (Homo sapiens) (UniProt Q9Y2U5)", "CLASS": "inactive"}
{"COMPOUND": "OCC1(CCOc2ccccc2)CCN(Cc2cn[nH]c2-c2ccccc2)CC1", "TARGET SYSTEM": "Mitogen-activated protein kinase kinase kinase 2 (Homo sapiens) (UniProt Q9Y2U5)", "CLASS": "inactive"}
{"COMPOUND": "Cc1c(CN2CCC(CO)(CCOc3ccccc3)CC2)[nH]c2ccc(Cl)cc12", "TARGET SYSTEM": "Mitogen-activated protein kinase kinase kinase 2 (Homo sapiens) (UniProt Q9Y2U5)", "CLASS": "active"}
{"COMPOUND": "O=C(NCCN1CCOCC1)c1ccc2c(c1)N(Cc1ccc(Cl)cc1)CCS2", "TARGET SYSTEM": "Mitogen-activated protein kinase kinase kinase 2 (Homo sapiens) (UniProt Q9Y2U5)", "CLASS": "inactive"}
{"COMPOUND": "CCOC(=O)C1(CCOc2ccccc2)CCN(Cc2cc(OC)c(O)cc2Cl)CC1", "TARGET SYSTEM": "Mitogen-activated protein kinase kinase kinase 2 (Homo sapiens) (UniProt Q9Y2U5)", "CLASS": "inactive"}
{"COMPOUND": "CCOC(=O)c1ccc(NC(=O)c2c(N)n(C)c(=O)[nH]c2=O)cc1", "TARGET SYSTEM": "Mitogen-activated protein kinase kinase kinase 2 (Homo sapiens) (UniProt Q9Y2U5)", "CLASS": "inactive"}

query: Record lookup: outcome of this test for O=C(CN1CCc2ccccc21)NC(c1ccccc1)c1ccccc1 ?
result: inactive

query: Returns: the outcome recorded for COc1cc(Br)c(-c2sc(Nc3ccccc3)n[n+]2-c2ccccc2)cc1OC in this assay.
result: active

query: What is the recorded call for this compound in the test? CCCCOc1ccc(C(=O)NCc2ccncc2)cc1
result: inactive

query: Tell me the assay call for COc1ccc(C)cc1Nc1n[n+](-c2ccccc2)c(-c2cccc(Cl)c2Cl)s1 please.
result: inactive

query: Called result for COC(=O)C(C)n1cnc2c(nnn2-c2cccc(Cl)c2)c1=O (stereo unspecified)
result: inactive
